Test system: SNB-75 CNS
Test: NCI tumour cell line growth inhibition, 48 h
endpoint: TGI

(Q) // query TGI value for entry CCOC(=O)c1nc2ccc(C(F)(F)F)cc2nc1NCc1ccc(OC)cc1
(A) > 100 µM

(Q) Record request: TGI value, item Cc1cccc(N(C)C(=O)[C@@H]2[C@H](O)CCN2c2nc(C)cc(C(F)(F)F)c2C#N)c1
(A) > 100 µM

(Q) Need TGI of C=C=C(CC1CCCCC1=O)S(=O)(=O)c1ccccc1 (stereo not drawn) , thanks.
(A) > 10 µM

----------
Test system: SW-620 colon
Assay: NCI tumour cell line growth inhibition, 48 h
endpoint: TGI

(Q) Entry CCCCNC(=O)c1cc2c(cc1Cl)Sc1nccn1S2(=O)=O has what TGI?
(A) > 100 µM

(Q) Can you look up the measured TGI of CC(C)(C)OC(=O)n1c2ccccc2c2c(=O)nc(N3CCCCC3)sc21 for me?
(A) > 100 µM

(Q) Look up TGI: c1ccc2c(Cc3[nH]c4ccccc4c3Cc3c[nH]c4ccccc34)c[nH]c2c1
(A) 5.59 µM

----------
System: SK-MEL-5 melanoma
Experiment: NCI tumour cell line growth inhibition, 48 h
endpoint: TGI

Some solved cases for reference:
COc1ccc(C2=N[C@@H](Cc3ccccc3)C(=O)Nc3ccsc32)cc1; 12.1 µM
COc1c(CC=C(C)C)c(O)c(C(CC(C)C)c2c(O)c3c(c(C(C)=O)c2O)OC(C(C)(C)O)C3)c(O)c1C(C)=O (configuration not stated); 4.44 µM
COc1ccc(C(=O)C2=NON3OC23C(=O)c2ccc(OC)cc2)cc1 (configuration not stated); 29.3 µM
CCCCCCCCCCCCCCCCCc1cccc(OCOCCOC)c1C(=O)O; 39.1 µM
Cc1ccc(S(=O)(=O)OCCn2cnc3nc(NC(=O)c4ccccc4)[nH]c(=O)c32)cc1; > 100 µM
COC(=O)CC(NC(=O)OCc1ccccc1)C(C(C)=O)C(=O)OCc1ccccc1 (configuration not stated); > 31.6 µM
CN(C)c1ccc(C=Nc2ccc(-c3nc4ccccc4[nH]3)cc2)cc1; > 100 µM
O=c1[nH]c2nnc(COc3ccc(Cl)cc3Cl)n2nc1Cc1ccccc1; > 100 µM
CCOC(=O)c1nc2ccc(C(F)(F)F)cc2nc1NCc1ccc(OC)cc1; > 100 µM
C=C=C(CC1CCCCC1=O)S(=O)(=O)c1ccccc1 (configuration not stated); > 10 µM

(Q) Which TGI value is on record for C[N+]1(CCC(=O)c2ccco2)CC2CCC(CC2)C1 (configuration not stated) ?
(A) > 100 µM

(Q) State the recorded TGI for this entry: CCc1n[nH]c(=O)n1/N=C/c1ccccc1O
(A) > 100 µM

----------
Listed here are compounds together with their documented TGI.
Tested on: KM12 colon
Test: NCI tumour cell line growth inhibition, 48 h

O=C(NCCCCCCCCCCCCNC(=O)c1cccc2ccccc12)c1cccc2ccccc12; > 100 µM

(Q) Please look up its TGI: Cc1nc([P+](c2ccccc2)(c2ccccc2)c2ccccc2)c(Sc2sc(-c3ccccc3)nc2[P+](c2ccccc2)(c2ccccc2)c2ccccc2)o1
(A) 3.35 µM

(Q) Given COC[C@@H](N=C1NC(=O)/C(=C/c2ccc3ncccc3c2)S1)c1ccccc1 , state its recorded TGI.
(A) > 25 µM

(Q) Item O=S(=O)(NCCCNc1nccc(-c2c(-c3ccc(O)cc3)nc3sccn23)n1)c1ccc(F)cc1 has what recorded TGI?
(A) 5.46 µM
